- Test system: Bacillus thuringiensis
- Assay remarks: Antimicrobial activity Bacillus thuringiensis at 0.15 mg/mL after 24 hrs by agar diffusion technique
- Assay type: functional
- Test parameters: read-out: IZ

| Chem smiles | zone of inhibition at 150 µg/mL (mm) |
| --- | --- |
| Cc1c(NC(=O)c2c(Nc3ccccc3)n[nH]c2N)c(=O)n(-c2ccccc2)n1C | 15 |
| Cc1c(NC(=O)c2c(Nc3ccccc3)n[nH]c2/N=C\N(C)C)c(=O)n(-c2ccccc2)n1C | 27 |
| Cc1c(NC(=O)CC#N)c(=O)n(-c2ccccc2)n1C | 12 |

----------
- System: Fusarium oxysporum
- Assay remarks: Antimicrobial activity Fusarium oxysporum at 0.15 mg/mL after 72 hrs by agar diffusion technique
- Test parameters: read-out: IZ
Item-by-item account of zone of inhibition at 150 µg/mL
Metric: zone of inhibition at 150 µg/mL (mm)

| Chem smiles | Metric | Measure unit | Reported measurement |
| --- | --- | --- | --- |
| Cc1cc(C)n(-c2c(C)n(C)n(-c3ccccc3)c2=O)c(=O)c1C#N | zone of inhibition at 150 µg/mL | mm | 12 |
| Cc1c(NC(=O)c2c(Nc3ccccc3)n[nH]c2N)c(=O)n(-c2ccccc2)n1C | zone of inhibition at 150 µg/mL | mm | 12 |
| Cc1cc(C)c2c(n1)[nH]n1c(=N)c(C(=O)Nc3c(C)n(C)n(-c4ccccc4)c3=O)nnc21 | zone of inhibition at 150 µg/mL | mm | 14 |
| Cc1c(-n2cnc3[nH]nc(Nc4ccccc4)c3c2=O)c(=O)n(-c2ccccc2)n1C | zone of inhibition at 150 µg/mL | mm | 25 |
| Cc1c(NC(=O)c2c(Nc3ccccc3)n[nH]c2/N=C\N(C)C)c(=O)n(-c2ccccc2)n1C | zone of inhibition at 150 µg/mL | mm | 21 |
| Cc1c(NC(=O)c2sc(=S)n(-c3ccccc3)c2N)c(=O)n(-c2ccccc2)n1C | zone of inhibition at 150 µg/mL | mm | 13 |
| Cc1c(NC(=O)c2cc3ccccc3oc2=N)c(=O)n(-c2ccccc2)n1C | zone of inhibition at 150 µg/mL | mm | 18 |
| Cc1c(-n2nnc3[nH]nc(Nc4ccccc4)c3c2=O)c(=O)n(-c2ccccc2)n1C | zone of inhibition at 150 µg/mL | mm | 22 |
| Cc1c(NC(=O)CC#N)c(=O)n(-c2ccccc2)n1C | zone of inhibition at 150 µg/mL | mm | 12 |

Ref: ChEMBL document CHEMBL1158180
